Tested on: Wolbachia pipientis
PROTOCOL_NOTES: Anti-Wolbachia Cell-Based Screen
Assay type: functional
Set-up: scale not given: in the data most compounds retested in dose-response had high values
CONDITION_CONTEXT: 5 µM
Screen size: about 48,000 compounds; about 13,000 (27%) showed an effect of 50% or more. The list shows a part of the results.
QUANTITY_NAME: Percent Effect (%)

- Cc1csc([C@H]2C[C@@H]3CCN(Cc4cc(C)on4)C[C@H]3O2)n1: 115.5
- Cc1cc(CN2CC[C@H]3C[C@H](C(=O)N(C)C)O[C@@H]3C2)no1: -3.331
- Cc1cc(CN2CC[C@H]3C(=O)N(c4ccsc4)CCO[C@H]3C2)no1.O=C(O)C(F)(F)F: -15.71
- Cc1cc(CN2C[C@@H]3COC[C@]3(c3nnc(C)o3)C2)no1: 12.18
- c1cc(CN2CCO[C@@H]3CNC[C@@H]32)co1: -20.72
- O=C(NCCc1c[nH]cn1)c1ccccc1C1CCNC1 (stereo unspecified): -4.788
- Cc1noc([C@@H]2C[C@H]3CN(Cc4cc(C)on4)C[C@H]3O2)n1.O=C(O)C(F)(F)F: 5.383
- Cl.Cl.c1cc(CN2CCO[C@@H]3CNC[C@@H]32)cs1: -7.592
- O=C(c1ccccc1)N1CCOC2CNCC[C@H]21 (stereo partly specified): 121.8
- Cl.Cl.c1ccc(CN2CCOC3CNCC[C@H]32)cc1 (stereo partly specified): -10.82
- Cc1cc(CN2C[C@@H]3CN(Cc4ccsc4)CCO[C@@H]3C2)no1: -0.7027
- N#Cc1cccc(CN2CCO[C@@H]3CNC[C@@H]32)c1: -0.4846
- O=C(Nc1ccccc1)[C@H]1CN2CCC1C[C@@H]2Cn1cc(CO)nn1 (stereo partly specified): -4.286
- C[C@@H]1C[C@@H]2CCN(Cc3nccs3)C[C@H]2O1: -21.98
- COCCNC(=O)[C@H]1C[C@@H]2CCN(Cc3ccncc3)C[C@H]2O1.O=C(O)C(F)(F)F.O=C(O)C(F)(F)F: 99.07
- CC(=O)C1(c2ccccc2)CCN(C(=O)CC2CNCCO2)CC1 (stereo unspecified): 5.115
- Cc1csc(CN2CC[C@H]3C[C@H](c4ccncn4)O[C@@H]3C2)n1: 0.9996
- CC(C)CN1C(=O)CO[C@@H]2CNC[C@H]21: -9.19
- CC(=O)N1CC[C@H]2N(C)CC[C@@]2(C(=O)Nc2cccnc2)CC1: 115.3
- O=C(c1ccoc1)N1CCO[C@@H]2CNC[C@@H]21: 113.2
- CC[C@H]1CN2CC[C@H]1C[C@@H]2CNC(=O)c1ccco1: -12.57

* * *

System: Wolbachia pipientis
PROTOCOL_NOTES: Anti-Wolbachia Cell-Based Screen
Assay type: functional
Set-up: scale not given: in the data most compounds retested in dose-response had high values
CONDITION_CONTEXT: 5 µM
The campaign covered roughly 48,000 compounds. About 13,000 (27%) showed an effect of 50% or more. This is one part of the list.
QUANTITY_NAME: Percent Effect (%)

- Cc1nccc([C@@H]2C[C@@H]3CCN(Cc4cccs4)C[C@H]3O2)n1: 0.9996
- Cc1cccc(CN2CCN3C[C@H](Oc4cccnc4)C[C@H]3C2)n1.O=C(O)C(F)(F)F.O=C(O)C(F)(F)F.O=C(O)C(F)(F)F: -1.606
- COCCN1C[C@@H](C)[C@@]2(COCCN(C(=O)c3ccccn3)C2)C1.O=C(O)C(F)(F)F.O=C(O)C(F)(F)F: -2.288
- Fc1cccc(O[C@@H]2C[C@H]3CN(Cc4ccccn4)CCN3C2)c1.O=C(O)C(F)(F)F.O=C(O)C(F)(F)F: -1.961
- Cc1cc(CN2CC[C@H]3C[C@@H](c4nc(C5CC5)cs4)O[C@@H]3C2)no1: 106.4
- Cc1cccnc1CC(C)NC1CCSCC1 (centres undefined): -10.51
- COc1cccc(CCNCc2c(C)nn(C)c2N(C)C)c1: -6.952
- O=C(c1cn(Cc2ccccc2)c2ncccc12)N1CCOCC1: 115.6
- Cc1cc(CN2CC[C@H]3C[C@H](c4nc(C5CC5)cs4)O[C@@H]3C2)no1: 106.7
- NCC1(c2cccc(C(F)(F)F)c2)CCOCC1: -0.8853
- Cc1nc(CN2CCN3C[C@H](Oc4cncnc4)C[C@H]3C2)cs1.O=C(O)C(F)(F)F.O=C(O)C(F)(F)F: 123.6
- CCN1CCC2(COCc3cnc(NCC4CC4)nc32)C1.O=C(O)C(F)(F)F (centres undefined): -6.306
- Cc1ccc(N2CCCN(C(=O)c3cn(C)c4ccccc34)CC2)nn1: 7.774
- COc1c(CNCCc2c[nH]c3ccccc23)c(C)nn1C: 86.16
- c1cc(CN2CC[C@H]3C[C@H](c4nc(C5CC5)cs4)O[C@@H]3C2)ccn1: 0.1706
- Cc1cccc(CN2CCN3C[C@H](Oc4cncnc4)C[C@H]3C2)n1.O=C(O)C(F)(F)F.O=C(O)C(F)(F)F: 126.4
- Cn1ccnc1CN1CCN2C[C@H](Oc3cncnc3)C[C@H]2C1.O=C(O)C(F)(F)F.O=C(O)C(F)(F)F: -0.7067
- Cc1nc(CN2CC[C@H]3C[C@H](c4ccncn4)O[C@@H]3C2)cs1: 0.4652
- CC(=O)c1cn(CC(=O)N2CCC3(CC2)OCCO3)c2ccccc12: -19.35
